Test system: HCC 2998
methodDescription: NCI tumour cell line growth inhibition, 48 h
Activity calls are given as the source filed them. Cut-off read from the data, not from the text of the source: active = GI50 up to about 1.1 µM and inactive = higher.
Task for the reader: assign each of the following molecules its reported GI50.

Give reported GI50 value for `Oc1c(O)c(Cc2ccccc2)c(Cc2ccccc2)c(Cc2ccccc2)c1Cc1ccccc1`
> 10 µM (inactive)

Give reported GI50 value for `O=C(Nc1ccccc1-c1n[nH]c(S)nc1=O)C(F)(F)F`
> 100 µM (inactive)

Give reported GI50 value for `O=C1OC[C@@H]2[C@@H](O)CCCCCN12`
> 100 µM (inactive)

Give reported GI50 value for Cc1c(N)nc(C2CC(=O)N2CC(N)C(N)=O)nc1C(=O)NC(C(=O)NC(C)C(O)C(C)C(=O)NC(C(=O)NCCc1nc(-c2nc(C(=O)NCCNCC(C)O)cs2)cs1)C(C)O)C(OC1OC(CO)C(O)C(O)C1OC1OC(CO)C(O)C(OC(N)=O)C1O)c1c[nH]cn1 (centres undefined)
21.9 µM (inactive)

Give reported GI50 value for `COc1ccccc1NS(=O)(=O)c1cc(C(C)(C)C)ccc1OCCOc1ccc(C(C)(C)C)cc1S(=O)(=O)Nc1ccccc1OC`
> 100 µM (inactive)

Give reported GI50 value for `CN1CCC/C1=N\C#N`
> 100 µM (inactive)

Give reported GI50 value for COC1CC(C)(N)C(O)C(C)O1 (centres undefined)
> 100 µM (inactive)

Give reported GI50 value for Cc1ccc(S(=O)(=O)NC(C(=O)O)C(C)C)cc1 (centres undefined)
> 100 µM (inactive)

Give reported GI50 value for O=C1C(Cl)C(c2ccc(O)cc2)N1n1cnc2ccccc2c1=O (centres undefined)
61.8 µM (inactive)
